- PROTOCOL_TEXT: viability gain of MRP-1-high H69AR cells under doxorubicin, pilot screen, MRP-1 activator project, CellTiter-Glo, duplicate (AID 807);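 note: compound pretreatment 18-22 h then 72 h combined with doxorubicin; 0% = doxorubicin alone and 100% = vehicle without doxorubicin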
- MEASUREMENT_SETUP: H69AR viability with doxorubicin, CellTiter-Glo luminescence; at 10 µM; hits give high values
RECORDED_METRIC: viability increase (%)
Your answer should be a plain number; it is taken to be in %.

Worked set:
// recorded viability increase for COc1ccccc1CNC(=O)C1CCN(S(=O)(=O)c2cccc3cccnc23)CC1 : -1.41

// recorded viability increase for CCNc1nc(C)c2cc(Br)c(=O)n(CC)c2n1 : -6.29

// recorded viability increase for CC(C)N(Cc1nc(-c2ccccc2)no1)C(=O)c1ccc(Cl)cc1 : 2.12

// recorded viability increase for CC(C)C(=O)Nc1nnc(-c2ccccc2)o1 : -2.2

// recorded viability increase for CCOC(=O)c1csc(NC(=O)c2ccccc2)n1 : 4.7

New cases:
// recorded viability increase for Cn1c(=O)c2c(nc(CN3CCN(Cc4ccccc4)CC3)n2Cc2ccccc2)n(C)c1=O : -0.85

// recorded viability increase for O=C(CSc1ncn[nH]1)Nc1nnc(-c2ccccc2)s1 : 4.9

// recorded viability increase for Cc1nc2sc(C(c3ccco3)N3CCC(C)CC3)c(O)n2n1 (stereo unspecified) : -1.29

// recorded viability increase for CCC1CCCCN1C(=O)CSc1nc(N)c(NC(=O)c2ccco2)c(=O)[nH]1 (stereo unspecified) : -2.48

// recorded viability increase for COc1ccccc1N1CCN(C(=O)C2CCN(S(=O)(=O)c3ccccc3)CC2)CC1 : -1.42

// recorded viability increase for Nc1cc(C(F)(F)F)ccc1C(=O)O : -1.66

// recorded viability increase for O=S(=O)(NCc1cccnc1)c1ccc(Cl)c(Cl)c1 : -0.3

// recorded viability increase for CC1CCN(S(=O)(=O)c2ccc3c(c2)oc(=O)n3CC(=O)N2c3ccccc3CC2C)CC1 (stereo unspecified) : -4.28

// recorded viability increase for CCOC(=O)c1c(N=CN(C)C)c(C#N)n2c1CCC2 : -1.41

// recorded viability increase for CCCN(CCC)C(=O)c1ccc2c(c1)N(Cc1ccccc1)C(=O)CS2=O (stereo unspecified) : -2.62

// recorded viability increase for O=C(CN1C(=O)c2ccccc2C1=O)Nc1cccc2cccnc12 : -1.1

// recorded viability increase for COC(=O)c1cc(-c2ccc(Br)cc2)on1 : -2.76

// recorded viability increase for O=C(NCC1CCCO1)c1ccc2c(c1)OCO2 (stereo unspecified) : 0.18

// recorded viability increase for Cc1cccn2c(=O)c3cc(C(=O)NC4CCS(=O)(=O)C4)sc3nc12 (stereo unspecified) : -2.99

// recorded viability increase for O=C(c1ccc2c(c1)C(=O)N(Cc1ccco1)C2O)N1CCOCC1 (stereo unspecified) : -2.58

// recorded viability increase for Cc1csc(=NC(=O)c2ccccc2)n1Cc1ccco1 : -2.24

----------
- PROTOCOL_TEXT: growth suppression of PTEN-deleted HCT116, pilot screen, cell-based, HCT116 clonal line, CellTiter-Glo (AID 824);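 note: 0% = 20 µM Hyamine control and 100% = vehicle cell control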
- MEASUREMENT_SETUP: 60 h, at 10 µM, hits give low values
Inconclusive results are not listed.
RECORDED_METRIC: viability (%)
Your answer should be a plain number; it is taken to be in %.

Worked set:
// recorded viability for COc1ccc(OC)c(NC2c3ccccc3C(=O)N2Cc2ccc3c(c2)OCO3)c1 (stereo unspecified) : 90

// recorded viability for O=C(Cn1c(N2CCN(c3ccccc3)CC2)nc2ccccc21)c1ccccc1 : 93.6

// recorded viability for Cc1cc(C)nc(NS(=O)(=O)c2ccc(NC(=O)c3ccc4c(c3)OCO4)cc2)n1 : 95.9

// recorded viability for O=C(COc1ccccc1)Nc1ccc(S(=O)(=O)N2CCCC2)cc1 : 88.7

// recorded viability for O=C(NCc1cccnc1)c1ccc(CS(=O)(=O)c2ccc(Br)cc2)o1 : 92.8

New cases:
// recorded viability for O=C(c1cccc(S(=O)(=O)N2CCOCC2)c1)N1CCOCC1 : 97.9

// recorded viability for CC(C)COC(=O)c1cc(=O)[nH]c2ccccc12 : 84.1

// recorded viability for COc1ccc(C2C(C(N)=O)=C(C)Nc3nc(-c4ccccc4Cl)nn32)c(OC)c1 (stereo unspecified) : 94.7

// recorded viability for COc1cccc(-c2nnc(SCC(=O)N3CC(C)CC(C)C3)o2)c1 (stereo unspecified) : 90.5

// recorded viability for O=C1Nc2ccc(S(=O)(=O)N3CCCC3C(=O)O)c3cccc1c23 (stereo unspecified) : 96.8

// recorded viability for CCOC(=O)c1sc(NCCNc2nc(C)c(C(=O)OCC)s2)nc1C : 89

// recorded viability for CCCC(=O)Nc1nc2ccc(OCC)cc2s1 : 85.7

// recorded viability for C=CCC(=O)OCC(=O)Nc1ccc(Oc2ccccc2)cc1 : 94.1

// recorded viability for COc1ccc(Nc2cc(C)nc3nc(C)nn23)c(OC)c1 : 106

// recorded viability for Cc1cc(C)c(C)c(OCC(=O)NCCN(C)C)c1 : 91.3

// recorded viability for CCOCN(C(=O)Cn1c(CO)nc2ccccc21)c1c(C)cccc1CC : 94.4

----------
growth inhibition values by entry
- PROTOCOL_TEXT: Restrictive medium S. cerevisiae growth inhibition, OD615, pilot screen of yeast lifespan reduction project, restrictive growth control (AID 706);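 note: modified DeaD lifespan yeast strain shifted to restrictive glucose medium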
- MEASUREMENT_SETUP: OD615, 48 h, at 10 µM, hits give high values
Calls of active or inactive are those of the source.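 How the source made its calls: active means growth inhibition above a set limit, 3 SD over mean compound inhibition, in both replicates (cut at about 43% in these data); inconclusive means above the limit in only one replicate; inactive means at or below the limit in both replicates.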

Worked set:
// recorded growth inhibition for Cn1c(Cn2c(=O)sc3ccccc32)nnc1SCC(=O)NCc1ccco1 : 8.09% (inactive)

// recorded growth inhibition for COc1ccccc1N1CCN(C(=O)c2ccc(Br)s2)CC1 : -6.29% (inactive)

// recorded growth inhibition for CC(=O)Nc1cccc(N(C)C)c1 : 5.4% (inactive)

New cases:
// recorded growth inhibition for O=C(NCc1ccc(F)cc1)c1cc2n(n1)C(C(F)(F)F)CC(C1CC1)N2 (stereo unspecified) : -7.74% (inactive)

// recorded growth inhibition for CCn1c(=O)cc(N2CCC3(CC2)OCCO3)[nH]c1=O : -8.98% (inactive)

// recorded growth inhibition for O=C1CCCN1CC(CN1CCOCC1)Sc1nnnn1-c1ccccc1 (stereo unspecified) : 7.22% (inactive)

// recorded growth inhibition for c1nc2nc3c(c(N4CCOCC4)n2n1)CCCC3 : 11.4% (inactive)

// recorded growth inhibition for CCOC(=O)N1CCN(C(=O)CSc2nnc(-c3ccc(C(C)(C)C)cc3)o2)CC1 : 8.32% (inactive)

// recorded growth inhibition for CCCN1C(=O)c2cc(C(=O)Nc3ccccc3CC)ccc2C1O (stereo unspecified) : -1.31% (inactive)

// recorded growth inhibition for COc1ccc(C)cc1NC(=O)c1nnn(CCc2ccccc2)c1N : -3.95% (inactive)

// recorded growth inhibition for CCOC(=O)N1CCc2c(sc(NC(C)=O)c2C(N)=O)C1 : -16.1% (inactive)

----------
- PROTOCOL_TEXT: growth suppression of beta-catenin knockout HCT116, pilot screen, human colon tumor cells (AID 823);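 note: 0% = wells killed by 20 µM Hyamine and 100% = untreated DMSO cell wells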
- MEASUREMENT_SETUP: CellTiter-Glo, 60 h, at 10 µM, hits give low values
Results filed as inconclusive are left out.
RECORDED_METRIC: viability (%)
Your answer should be a plain number; it is taken to be in %.

// recorded viability for Cc1ccc(C(=O)NCCCC(=O)O)o1 : 97.4

New cases:
// recorded viability for O=C(NCCCNCc1ccccc1)c1ccc(/C=N/O)nc1 : 93.2

// recorded viability for CC1Cc2nc(SCC(=O)N3CCCC3)n(C)c(=O)c2S1 (stereo unspecified) : 98.2

// recorded viability for CCOc1ccc(N(CC(=O)NCc2ccc(F)cc2)S(=O)(=O)c2c(C)noc2C)cc1 : 99.3

// recorded viability for Cc1ccc(C2CC(c3cccc(Br)c3)n3nc(N)nc3N2)cc1 (stereo unspecified) : 68.2

// recorded viability for CCCC(C(=O)N1CCOCC1)N1C(=O)C2C3C=CC(C3)C2C1=O (stereo unspecified) : 99

----------
- PROTOCOL_TEXT: RAM signaling pathway blockade in yeast – S. cerevisiae, Pdr1DBD-CYC8 efflux-inhibited sensitized strain, primary screen (AID 1298);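 note: 0% = DMSO untreated cells without growth and 100% = 10 µM 1-NA-PP1 full growth; higher means more yeast growth rescued from 5-FOA killing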
- MEASUREMENT_SETUP: S. cerevisiae cbk1-as DSE1-URA3 strain, 5-FOA growth OD615, 2 d; at 50 µM; hits give high values
RAM network inhibition values by entry
Your answer should be a plain number; it is taken to be in %.

Worked set:
// recorded RAM network inhibition for O=C1C2C3c4ccccc4C(c4ccccc43)C2C(=O)N1Cc1ccco1 (stereo not drawn) : 4.51

// recorded RAM network inhibition for Cc1ccc(S(=O)(=O)NCC(=O)N2CCC(C)CC2)cc1 : 4.08

// recorded RAM network inhibition for C=CCc1cccc2cc(C(=O)N(C)C)c(=O)oc12 : 2.04

// recorded RAM network inhibition for O=C(c1ccc(COc2ccccc2Cl)o1)N1CCN(c2ccccc2)CC1 : 5.58

// recorded RAM network inhibition for CCC(C)NC(=O)c1ccc(NC(=O)C2CCCO2)cc1 (stereo not drawn) : 1.78

// recorded RAM network inhibition for CC(=O)c1cccc(NC(=O)Cn2cc3c(n2)CCCC3)c1 : 2.14

New cases:
// recorded RAM network inhibition for CCCn1c(NCc2ccc(N(C)C)cc2)nc2ccccc21 : 5.4

// recorded RAM network inhibition for O=C(c1ccc(=O)[nH]c1)N(Cc1ccco1)C1(C(=O)NC2CCCCC2)CCCCC1 : 1.87

// recorded RAM network inhibition for COc1ccc(-n2c(Cn3c(=O)sc4ccccc43)nnc2SC)cc1 : 1.33
